Task for the reader: assign each of the following molecules its reported pEC50.
system_tested: cIAP1-BIR3 (Homo sapiens)
assay_method_text: Biacore SPR solution competition binding assay vs smac7mer peptide, cIAP1-BIR3
study_conditions: SPR competition with captured smac7mer peptide; 6 nM cIAP1-BIR3; 25° C.; read-out: CIAP-BIR3 Binding Biacore (Competitive) EC50
Description: The compounds described herein above were profiled using a cellular assay (using Panc3.27 tumor cells) and a binding assay to determine the competition between the compounds of the present invention and smac7mer peptide for XIAP-BIR3 and cIAP1-BIR3 binding groove occupancy. […]
pEC50: −log10 of the molar value.

molecule	pEC50
CN[C@@H](C)C(=O)N[C@H](C(=O)N1CCC[C@H]1c1cncc(-c2ccc(F)c(C(=O)NCCCCCCCCNC(=O)c3cc(-c4cncc([C@@H]5CCCN5C(=O)[C@@H](NC(=O)[C@H](C)NC)C5CCCCC5)c4)ccc3F)c2)c1)C1CCCCC1 [Example 2G-1]	8.88 to 8.90
CN[C@@H](C)C(=O)N[C@H](C(=O)N1CCC[C@H]1c1cncc(-c2ccc(F)c(C(=O)NCCCOCCOCCOCCCNC(=O)c3cc(-c4cncc([C@@H]5CCCN5C(=O)[C@@H](NC(=O)[C@H](C)NC)C5CCCCC5)c4)ccc3F)c2)c1)C1CCCCC1 [Example 2J-2]	8.85 to 8.86

Look up pEC50 of CN[C@@H](C)C(=O)N[C@H](C(=O)N1CCC[C@H]1c1cncc(-c2ccc(F)c(C(=O)NCCCCCCCCCCNC(=O)c3cc(-c4cncc([C@@H]5CCCN5C(=O)[C@@H](NC(=O)[C@H](C)NC)C5CCCCC5)c4)ccc3F)c2)c1)C1CCCCC1 [Example 2D-1] and report it.
8.66 to 8.87

----------
system_tested: cIAP1-BIR3 (Homo sapiens)
assay_method_text: Biacore SPR solution competition binding assay vs smac7mer peptide, cIAP1-BIR3
study_conditions: SPR competition with captured smac7mer peptide; 6 nM cIAP1-BIR3; 25° C.; read-out: CIAP-BIR3 Binding Biacore (Competitive) EC50
value_type: pEC50
Give bare numbers, as −log10 of the molar value.

// worked examples, pEC50 included
compound	system_tested	pEC50
CN[C@@H](C)C(=O)N[C@H](C(=O)N1CCC[C@H]1c1cncc(-c2ccc(F)c(C(=O)N3CC4(C3)CN(C(=O)c3cc(-c5cncc([C@@H]6CCCN6C(=O)[C@@H](NC(=O)[C@H](C)NC)C6CCCCC6)c5)ccc3F)C4)c2)c1)C1CCCCC1	cIAP1-BIR3 (Homo sapiens)	8.43
CN[C@@H](C)C(=O)N[C@H](C(=O)N1CCC[C@H]1c1cncc(-c2ccc(F)c(C(=O)NCCCOCCOCCCNC(=O)c3cc(-c4cncc([C@@H]5CCCN5C(=O)[C@@H](NC(=O)[C@H](C)NC)C5CCCCC5)c4)ccc3F)c2)c1)C1CCCCC1	cIAP1-BIR3 (Homo sapiens)	8.47

Dear reader, for each entry below, please note its pEC50.
1. CN[C@@H](C)C(=O)N[C@H](C(=O)N1CCC[C@H]1c1cncc(-c2ccc(F)c(C(=O)NCCCCNC(=O)c3cc(-c4cncc([C@@H]5CCCN5C(=O)[C@@H](NC(=O)[C@H](C)NC)C5CCCCC5)c4)ccc3F)c2)c1)C1CCCCC1
2. CN[C@@H](C)C(=O)N[C@H](C(=O)N1CCC[C@H]1c1cncc(-c2ccc(F)c(C(=O)NCCCCCCNC(=O)c3cc(-c4cncc([C@@H]5CCCN5C(=O)[C@@H](NC(=O)[C@H](C)NC)C5CCCCC5)c4)ccc3F)c2)c1)C1CCCCC1

1. 8.55
2. 8.87

----------
Task for the reader: assign each of the following molecules its reported pEC50.
system_tested: cIAP1-BIR3 (Homo sapiens)
assay_method_text: Biacore SPR solution competition binding assay vs smac7mer peptide, cIAP1-BIR3
study_conditions: SPR competition with captured smac7mer peptide; 6 nM cIAP1-BIR3; 25° C.; read-out: CIAP-BIR3 Binding Biacore (Competitive) EC50
pEC50: −log10 of the molar value.

// worked examples, pEC50 included
compound	value_type	observed_result
CN[C@@H](C)C(=O)N[C@H](C(=O)N1CCC[C@H]1c1cncc(-c2ccc(F)c(C(=O)NCCCCCCCCCCCCNC(=O)c3cc(-c4cncc([C@@H]5CCCN5C(=O)[C@@H](NC(=O)[C@H](C)NC)C5CCCCC5)c4)ccc3F)c2)c1)C1CCCCC1	pEC50	8.20 to 8.25
CN[C@@H](C)C(=O)N[C@H](C(=O)N1CCC[C@H]1c1cncc(-c2ccc(F)c(C(=O)NCCNC(=O)c3cc(-c4cncc([C@@H]5CCCN5C(=O)[C@@H](NC(=O)[C@H](C)NC)C5CCCCC5)c4)ccc3F)c2)c1)C1CCCCC1	pEC50	8.95 to 8.96

Dear reader, for each entry below, please note its pEC50.
1. CN[C@@H](C)C(=O)N[C@H](C(=O)N1CCC[C@H]1c1cncc(-c2ccc(F)c(C(=O)NCc3ccc(-c4ccc(CNC(=O)c5cc(-c6cncc([C@@H]7CCCN7C(=O)[C@@H](NC(=O)[C@H](C)NC)C7CCCCC7)c6)ccc5F)cc4)cc3)c2)c1)C1CCCCC1
2. CN[C@@H](C)C(=O)N[C@H](C(=O)N1CCC[C@H]1c1cncc(-c2ccc(F)c(C(=O)N[C@H]3CC[C@H](NC(=O)c4cc(-c5cncc([C@@H]6CCCN6C(=O)[C@@H](NC(=O)[C@H](C)NC)C6CCCCC6)c5)ccc4F)CC3)c2)c1)C1CCCCC1

9.00 to 9.01
8.78

----------
system_tested: cIAP1-BIR3 (Homo sapiens, UniProt Q13490)
Sequence (Q13490 253-363 limits assumed): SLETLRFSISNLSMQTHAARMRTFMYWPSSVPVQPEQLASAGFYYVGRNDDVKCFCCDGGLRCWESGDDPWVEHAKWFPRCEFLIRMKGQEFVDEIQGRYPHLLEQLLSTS
assay_method_text: Biacore SPR solution competition binding assay vs smac7mer peptide, cIAP1-BIR3
study_conditions: SPR competition with captured smac7mer peptide; 6 nM cIAP1-BIR3; 25° C.; read-out: CIAP-BIR3 Binding Biacore (Competitive) EC50
pEC50: −log10 of the molar value.
value_type: pEC50

// worked examples, pEC50 included
molecule	pEC50
CN[C@@H](C)C(=O)N[C@H](C(=O)N1CCC[C@H]1c1cncc(-c2ccc(F)c(C(=O)NCCOCCOCCNC(=O)c3cc(-c4cncc([C@@H]5CCCN5C(=O)[C@@H](NC(=O)[C@H](C)NC)C5CCCCC5)c4)ccc3F)c2)c1)C1CCCCC1 [Example 2H-1]	8.72 to 8.74
CN[C@@H](C)C(=O)N[C@H](C(=O)N1CCC[C@H]1c1cncc(-c2ccc(F)c(C(=O)NNC(=O)c3cc(-c4cncc([C@@H]5CCCN5C(=O)[C@@H](NC(=O)[C@H](C)NC)C5CCCCC5)c4)ccc3F)c2)c1)C1CCCCC1 [Example 2N-2]	8.87 to 8.90
CN[C@@H](C)C(=O)N[C@H](C(=O)N1CCC[C@H]1c1cncc(-c2ccc(F)cc2CNC(=O)c2ccc(-c3ccc(C(=O)NCc4cc(F)ccc4-c4cncc([C@@H]5CCCN5C(=O)[C@@H](NC(=O)[C@H](C)NC)C5CCCCC5)c4)cc3)cc2)c1)C1CCCCC1 [Example 3A]	9.06 to 9.07

Moving on to another molecule below.
Look up pEC50 of CN[C@@H](C)C(=O)N[C@H](C(=O)N1CCC[C@H]1c1cncc(-c2ccc(F)c(C(=O)NCc3ccc(CNC(=O)c4cc(-c5cncc([C@@H]6CCCN6C(=O)[C@@H](NC(=O)[C@H](C)NC)C6CCCCC6)c5)ccc4F)cc3)c2)c1)C1CCCCC1 [Example 2B-1] and report it.
9.10 to 9.11
